All values here come from ChEMBL document CHEMBL3091303.

ASSAY TARGET: Adenosine receptor A2a (Rattus norvegicus, UniProt P30543)
Sequence (P30543 whole entry): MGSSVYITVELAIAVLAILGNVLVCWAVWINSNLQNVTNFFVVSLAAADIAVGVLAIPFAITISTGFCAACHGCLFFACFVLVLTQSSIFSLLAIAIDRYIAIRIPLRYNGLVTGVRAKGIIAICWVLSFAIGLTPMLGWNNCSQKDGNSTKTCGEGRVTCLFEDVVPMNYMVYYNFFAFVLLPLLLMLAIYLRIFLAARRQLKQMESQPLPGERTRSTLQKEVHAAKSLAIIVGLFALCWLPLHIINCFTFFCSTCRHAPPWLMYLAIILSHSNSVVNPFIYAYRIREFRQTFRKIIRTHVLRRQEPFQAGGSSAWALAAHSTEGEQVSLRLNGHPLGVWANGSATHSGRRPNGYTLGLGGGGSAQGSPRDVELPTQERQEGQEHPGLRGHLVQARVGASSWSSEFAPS
MEASUREMENT PROTOCOL: Displacement of [3H]MSX-2 from adenosine A2A receptor in rat brain striatum
Assay type: tissue-based
VALUE TYPE: Ki (µM)
Write down the numeric answer in µM and omit the unit.

# example entries with known answers
CCn1c(=O)c2c(nc3n2CCCN3CCc2cccc(OC)c2)n(CC)c1=O	2.65
C#CCn1c(=O)c2c(nc3n2CCCN3CC2CCCCC2)n(C)c1=O	0.498
CCCn1c(=O)c2c(nc3n2CCCN3CC(=O)N2CCN(Cc3ccccc3)CC2)n(CCC)c1=O	8.22

Q. Provide only the value of recorded Ki for CCn1c(=O)c2c(nc3n2CCCN3CCc2ccccc2OC)n(CC)c1=O
A. 1.83

Q. Provide only the value of recorded Ki for Cn1c(=O)c2c(nc3n2CCCN3c2ccc(Cl)cc2)n(C)c1=O
A. 1.21

Q. Provide only the value of recorded Ki for Cn1c(=O)c2c(nc3n2CCCN3Cc2cc(Cl)cc(Cl)c2)n(C)c1=O
A. 1.64

Q. Provide only the value of recorded Ki for C#CCn1c(=O)c2c(nc3n2CCCN3Cc2ccccc2OC)n(C)c1=O
A. 0.641

Q. Provide only the value of recorded Ki for CCn1c(=O)c2c(nc3n2CCCN3CCc2ccc(OC)cc2)n(CC)c1=O
A. 0.624

Q. Provide only the value of recorded Ki for C#CCn1c(=O)c2c(nc3n2CCCN3CCc2cc(OC)c(OC)c(OC)c2)n(C)c1=O
A. 0.723

Q. Provide only the value of recorded Ki for C#CCn1c(=O)c2c(nc3n2CCCN3CCc2ccccc2)n(C)c1=O
A. 0.827

Q. Provide only the value of recorded Ki for CCn1c(=O)c2c(nc3n2CCCN3CCc2cc(OC)c(OC)c(OC)c2)n(CC)c1=O
A. 3.87

Q. Provide only the value of recorded Ki for C#CCn1c(=O)c2c(nc3n2CCCN3CCc2cccs2)n(C)c1=O
A. 0.71

Q. Provide only the value of recorded Ki for C#CCn1c(=O)c2c(nc3n2CCCN3C2CCC2)n(C)c1=O
A. 0.38

Q. Provide only the value of recorded Ki for Cn1c(=O)c2c(nc3n2CCCN3Cc2ccc(Cl)cc2)n(C)c1=O
A. 7.23

Q. Provide only the value of recorded Ki for C#CCn1c(=O)c2c(nc3n2CCCN3CC2CCCO2)n(C)c1=O (stereo unspecified)
A. 1.43

Q. Provide only the value of recorded Ki for CCn1c(=O)c2c(nc3n2CCCN3CCc2ccc(OC)c(OC)c2)n(CC)c1=O
A. 1.88

Q. Provide only the value of recorded Ki for Cn1c(=O)c2c(nc3n2CCCN3c2cccc(Cl)c2)n(C)c1=O
A. 3.76

Q. Provide only the value of recorded Ki for C#CCn1c(=O)c2c(nc3n2CCCN3Cc2ccccc2)n(C)c1=O
A. 0.533

###

ASSAY TARGET: MAO-B (amine oxidase [flavin-containing] B) (Homo sapiens, UniProt P27338)
Sequence (P27338 whole entry): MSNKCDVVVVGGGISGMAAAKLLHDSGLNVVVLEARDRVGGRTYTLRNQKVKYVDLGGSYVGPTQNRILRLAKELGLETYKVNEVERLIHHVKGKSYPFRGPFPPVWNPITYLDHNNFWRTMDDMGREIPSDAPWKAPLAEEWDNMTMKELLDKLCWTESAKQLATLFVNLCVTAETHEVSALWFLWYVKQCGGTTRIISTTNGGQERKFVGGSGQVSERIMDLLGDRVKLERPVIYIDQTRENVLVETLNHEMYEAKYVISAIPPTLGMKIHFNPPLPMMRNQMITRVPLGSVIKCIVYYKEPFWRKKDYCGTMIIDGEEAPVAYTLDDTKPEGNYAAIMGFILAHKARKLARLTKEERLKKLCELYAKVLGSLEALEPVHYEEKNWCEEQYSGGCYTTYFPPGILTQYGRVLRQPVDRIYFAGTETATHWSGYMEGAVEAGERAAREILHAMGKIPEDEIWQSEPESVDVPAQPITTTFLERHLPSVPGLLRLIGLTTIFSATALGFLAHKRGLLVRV
MEASUREMENT PROTOCOL: Inhibition of human MAO-B at 10 uM relative to control
VALUE TYPE: inhibition at 10 µM

# example entries with known answers
C#CCn1c(=O)c2c(nc3n2CCCN3CC2CCCO2)n(C)c1=O (stereo not given)	30%
CCn1c(=O)c2c(nc3n2CCCN3CCc2cc(OC)c(OC)c(OC)c2)n(CC)c1=O	25%
CCn1c(=O)c2c(nc3n2CCCN3CCc2cccc(OC)c2)n(CC)c1=O	33%

Q. Provide only the value of recorded inhibition at 10 µM for Cn1c(=O)c2c(nc3n2CCCN3c2ccc(Cl)cc2)n(C)c1=O
A. 6%

Q. Provide only the value of recorded inhibition at 10 µM for C#CCn1c(=O)c2c(nc3n2CCCN3CCc2cc(OC)c(OC)c(OC)c2)n(C)c1=O
A. 29%

Q. Provide only the value of recorded inhibition at 10 µM for C#CCn1c(=O)c2c(nc3n2CCCN3CCc2ccc(OC)cc2)n(C)c1=O
A. 25%

Q. Provide only the value of recorded inhibition at 10 µM for COc1ccc(CN2CCN(C(=O)CN3CCCn4c3nc3c4c(=O)n(C)c(=O)n3C)CC2)cc1
A. 30%

Q. Provide only the value of recorded inhibition at 10 µM for C#CCn1c(=O)c2c(nc3n2CCCN3c2ccc(C(C)C)cc2)n(C)c1=O
A. 64%

Q. Provide only the value of recorded inhibition at 10 µM for C#CCn1c(=O)c2c(nc3n2CCCN3c2ccc(F)cc2)n(C)c1=O
A. 17%

Q. Provide only the value of recorded inhibition at 10 µM for C#CCn1c(=O)c2c(nc3n2CCCN3c2cc(OC)cc(OC)c2)n(C)c1=O
A. 30%
